# experimental.target: T1, Murine APRIL (mouse, UniProt Q9D777 105-241, limits assumed)
# T1 sequence (looked up): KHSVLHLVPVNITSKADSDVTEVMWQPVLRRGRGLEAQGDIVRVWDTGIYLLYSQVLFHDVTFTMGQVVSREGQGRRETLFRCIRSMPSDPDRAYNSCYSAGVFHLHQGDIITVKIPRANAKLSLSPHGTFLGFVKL
# test.protocol: shotgun scan, phage display
Quick list: F (APRIL) per entry.
outcome.measure: F (APRIL)

| binder | outcome.measure | measured.result |
| --- | --- | --- |
| SLSCRKEQGKFYDHLLRDCISCASICGQHPKQCAYFCENELR (receptor, phage library variant, format as m9) [TACI_d2 K107E] | F (APRIL) | 2.1 |
| SLSCRKEQGAFYDHLLRDCISCASICGQHPKQCAYFCENKLR (receptor, phage library variant, format as m9) [TACI_d2 K77A] | F (APRIL) | 1 |
| SLSCRKEQGKFYDHLLRDCISCASICGQHPKQCAYFCENALR (receptor, phage library variant, format as m9) [TACI_d2 K107A] | F (APRIL) | 0.9 |
| SLSCRKEQGKFYDHLLRDCISCASICGAHPKQCAYFCENKLR (receptor, phage library variant, format as m9) [TACI_d2 Q95A] | F (APRIL) | 6.6 |
| SLSCRKEQGKFYDHLLRDCISCASICGQHPKQCASFCENKLR (receptor, phage library variant, format as m9) [TACI_d2 Y102S] | F (APRIL) | 1.5 |
| SLSCRKEQGKFYDHLLRDCISCASICGQHPKQCAYFCENKVR (receptor, phage library variant, format as m9) [TACI_d2 L108V] | F (APRIL) | 0.9 |

Sourced from patent US20080181886A1
